- EXPERIMENTAL_SYSTEM: T1, Human trkC-Fc fusion protein (human, UniProt Q16288 32-429)
- T1 construct: Immobilised on CM5 chip for BIAcore; also called htrkC; not shown: Fc part not described
- TEST_PROTOCOL: BIAcore SPR, Fab over immobilised human trkC-Fc
PROPERTY_MEASURED: koff (s⁻¹)
// note: answer is a bare numeric in s⁻¹

// known answers, use as guide
BINDER	koff / s⁻¹
Fab clone 129(C26) (Fab, V domains shown) VH: QVQLVQSGAEVKKPGASVKVSCKASGYTFTSYWMHWVRQAPGQGLEWMGEIYPSNGRTNYNEKFKSRVTMTGDKSTSTVYMELSSLRSEDTAVYYCARKYYYGNSSRSWYFDVWGQGTTVTVS VL: DIQMTQSPSSLSASVGDRVTITCRASESVDNYGISFMNWYQQKPGQAPKLLIYAASNQGSGVPSRFSGSGSGTDFTFTISSLQPEDIATYYCQQSKSVPRTFGQGTKLEIKR	0.007
Fab clone 129(T8) (Fab, V domains shown) VH: QVQLVQSGAEVKKPGASVKVSCKASGYTFTSYWMHWVRQAPGQGLEWMGEIYPSNGRTNYNEKFKSRATMTGDKSTSTVYMELSSLRSEDTAVYYCARKYYYGNSRRSWYFDVWGQGTTVTVS VL: DIQMTQSPSSLSASVGDRVTITCRASESVDNYGISFMNWYQQKPGKAPKLLIYAASNQGSGVPSRFSGSGSGTDFTFTISSLQPEDIATYYCQQSKTVPRTFGQGTKLEIKR	0.0016
Fab A5, clone 129(T8)(H8xE10)(10B)(A5) (Fab, V domains shown, purified on Ni-NTA; also called A5 (Fab)) VH: QVQLVQSGAEVKKPGASVKVSCKASGYTFTSYRIHWVRQAPGQGLEWMGEIYPSNARTNYNEKFKSRVTMTRDTSTSTVYMELSSLRSEDTAVYYCARKYYYGNTRRSWYFDVWGQGTTVTVS VL: DIQMTQSPSSLSASVGDRVTITCRASESIDNYGISFLAWYQQKPGKAPKLLIYAASNRGSGVPSRFSGSGSGTDFTFTISSLQPEDIATYYCQQSKTVPRTFGQGTKLEIKR	0.00037

Inquiry: // fetch koff given entry Fab clone 129(C28) (Fab, V domains shown) VH: QVQLVQSGAEVKKPGASVKVSCKASGYTFTSYWMHWVRQAPGQGLEWMGEIYPSNGRTNYNEKFKSRATMTGDTSTSTVYMQLSSLRSEDTAVYYCARKYYYGNSQRSWYFDVWGQGTTVTVS VL: DIQMTQSPSSLSASVGDRVTITCRASESVDNYGISFMNWYQQKPGQAPKLLIYAASNQGSGVPSRFSGSGSGTDFTFTISSLQPEDIATYYCQQSKTVPRTFGQGTKLEIKR
Reply text: 0.0019

Inquiry: Note koff for the binder shown: Fab clone 129(C2) (Fab, V domains shown) VH: QVQLVQSGAEVKKPGASVKVSCKASGYTFTSYWMHWVRQAPGQGLEWMGEIYPSNGRTNYNEKFKSRVTMTGDTSTSTVYMQLSSLRSEDTAVYYCARKYYYGNSKRSWYFDVWGQGTTVTVS VL: DIQMTQSPSSLSASVGDRVTITCRASESVDNYGISFMNWYQQKPGQPPKLLIYAASNQGSGVPSRFSGTGSGTDFTFTISSLQPEDIATYYCQQSKEVPRTFGQGTKLEIKR
Reply text: 0.0025
